pIC50 values, listed per item
# System: IL-1β release from LPS-stimulated blood cells
# procedure_text: Whole blood assay, LPS-induced IL-1β release (cytometric bead array)
# Format: cell-based
# test_conditions: Homo sapiens; heparinized whole blood, LPS 10 ng/ml, 6 h, 37°C
pIC50: −log10 of the molar value.
property_measured: pIC50

[
  {
    "chemical_structure": "O=c1cc(-c2ccc(O)c(O)c2)oc2cc(O)cc(O)c12",
    "reported_result": 4.17
  },
  {
    "chemical_structure": "COc1cc(C=CC(=O)CC(=O)C=Cc2ccc(O)c(OC)c2)ccc1O",
    "reported_result": 5.10
  },
  {
    "chemical_structure": "O=c1c(O)c(-c2ccc(O)c(O)c2)oc2cc(O)cc(O)c12",
    "reported_result": 4.70
  },
  {
    "chemical_structure": "O=c1c(O)c(-c2ccc(O)cc2)oc2cc(O)cc(O)c12",
    "reported_result": 4.46
  }
]
